Biological target: human small ubiquitin-like modifier 1 (human) (UniProt P63165)
Experiment: ratio of the apparent affinity for hSUMO1 to that for ySUMO in the titration phage ELISA of FIGS. 25A and 26A; group Low Specificity (0-10)
Use 1 as the dividing line for Specificity Factor, with the line itself on the true (1) side and lower values as false (0).

BINDER	ASSIGNED_CATEGORY
hS1MB-21 (designed binder) VSSVPTKLEVVAATPTSLLISWDASSSSVSHYGITYGETGGNSPVQEFTVPGSSSTATISGLSPGVDYTITVYAYYSYHDIFYALSPSSINYRT	false (0)
hS1MB-13 (designed binder) VSSVPTKLEVVAATPTSLLISWDASSSSVSYYAITYGETGGNSPVQEFTVPGSSSTATISGLSPGVDYTITVYAYHSYDDIYFAFSPSSINYRT	true (1)
hS1MB-19 (designed binder) VSSVPTKLEVVAATPTSLLISWDASSSSVSHYGITYGETGGNSPVQEFTVPGSSSTATISGLSPGVDYTITVYAYYSYDDIFVAVSPSSINYRT	true (1)
hS1MB-15 (designed binder) VSSVPTKLEVVAATPTSLLISWDASSSSVSYYDITYGETGGNSPVQEFTVPGSSSTATISGLSPGVDYTITVYAYYSYDDIYFADSPSSINYRT	true (1)
hS1MB-22 (designed binder) VSSVPTKLEVVAATPTSLLISWDASSSSVSHYAITYGETGGNSPVQEFTVPGSSSTATISGLSPGVDYTITVYAFYSYYDIFYSDSPSSINYRT	false (0)

Provenance of the data: patent US20140057807A1
